Values were extracted from ChEMBL document CHEMBL2202958.

Tested on: Hepatitis C virus
Assay: Antiviral activity against HCV1b con1 infected in human Huh-7 cells assessed as inhibition of viral replication after 24 hrs in presence of 50% normal human serum
Type: functional, organism-based, Hepacivirus hominis
Conditions: Con1, Huh-7, 24 h
IC50 vs 30 nM: less than gives rule met; not less than gives rule not met.

C=C[C@@H]1C[C@]1(NC(=O)[C@@H]1C[C@@H]2CN1C(=O)[C@H](C1CCCC1)NC(=O)OCC(C)(C)CCCc1cc3c(cc(OCc4csc(C)n4)nc3cc1OC)O2)C(=O)NS(=O)(=O)C1CC1 : rule met
C=C[C@@H]1C[C@]1(NC(=O)[C@@H]1C[C@@H]2CN1C(=O)[C@H](C1CCCCC1)NC(=O)OCC(C)(C)CCCc1cc3c(cc(NC4CCCCC4)nc3cc1OC)O2)C(=O)NS(=O)(=O)C1CC1 : rule not met
C=C[C@@H]1C[C@]1(NC(=O)[C@@H]1C[C@@H]2CN1C(=O)[C@H](C1CCCCC1)NC(=O)OCC(C)(C)CCCc1cc3c(cc(OCc4csc(C)n4)nc3cc1OC)O2)C(=O)NS(=O)(=O)C1CC1 : rule met

Continue with the compound presented below.
Prompt: Input "C=C[C@@H]1C[C@]1(NC(=O)[C@@H]1C[C@@H]2CN1C(=O)[C@H](C1CCCC1)NC(=O)OCC(C)(C)CCCc1cc3c(nc4cc(OC)ccc4c3cc1OC)O2)C(=O)NS(=O)(=O)C1CC1" ; condition: IC50 strictly below 30 nM. Does it hold?
Response: rule met

###

Assay: Inhibition of HCV3a NS3/4A protease by time-resolved fluorescence assay
Set-up: species or system Hepatitis C virus subtype 3a
Each item that follows carries a reported Ki.
The reply should be a number in nM, with the unit left off.

Consider the reported Ki for these molecules:
C=C[C@@H]1C[C@]1(NC(=O)[C@@H]1C[C@@H]2CN1C(=O)[C@H](C1CCCCC1)NC(=O)OCC(C)(C)CCCc1cc3c(cc(OCC)nc3cc1OC)O2)C(=O)NS(=O)(=O)C1CC1 : 7.6
C=C[C@@H]1C[C@]1(NC(=O)[C@@H]1C[C@@H]2CN1C(=O)[C@H](C1CCCCC1)NC(=O)OCC(C)(C)CCCc1cc3c(cc(-c4cccnc4)nc3cc1OC)O2)C(=O)NS(=O)(=O)C1CC1 : 55
C=C[C@@H]1C[C@]1(NC(=O)[C@@H]1C[C@@H]2CN1C(=O)[C@H](C1CCCCC1)NC(=O)OCC(C)(C)CCCc1cc3c(cc(N(C)C(=O)OCC)nc3cc1OC)O2)C(=O)NS(=O)(=O)C1CC1 : 4.3
C=C[C@@H]1C[C@]1(NC(=O)[C@@H]1C[C@@H]2CN1C(=O)[C@H](C1CCCC1)NC(=O)OCC(C)(C)CCCc1cc3c(cc(OCc4csc(C(C)C)n4)nc3cc1OC)O2)C(=O)NS(=O)(=O)C1CC1 : 2

Please turn your attention to the following entry.
Prompt: Looking for the measured Ki of "C=C[C@@H]1C[C@]1(NC(=O)[C@@H]1C[C@@H]2CN1C(=O)[C@H](C1CCCCC1)NC(=O)OCC(C)(C)CCCc1cc3c(cc(-c4cccc(OC)c4)nc3cc1OC)O2)C(=O)NS(=O)(=O)C1CC1" , can you help?
Response: 78

###

Test system: Hepatitis C virus
Assay: Antiviral activity against HCV1b con1 infected in human Huh-7 cells assessed as inhibition of viral replication after 24 hrs in presence of 50% normal human serum
Assay type: functional, organism-based, Hepacivirus hominis
Conditions: Con1, Huh-7, 24 h
Overview of recorded pIC50 for various molecules
# pIC50: negative log10 of molar concentration; output just the value

C=C[C@@H]1C[C@]1(NC(=O)[C@@H]1C[C@@H]2CN1C(=O)[C@H](C1CCCCC1)NC(=O)OCC(C)(C)CCCc1ccc3c(c1)c(cc1nccn13)O2)C(=O)NS(=O)(=O)C1CC1 : 6.74
C=C[C@@H]1C[C@]1(NC(=O)[C@@H]1C[C@@H]2CN1C(=O)[C@H](C1CCCC1)NC(=O)OCC(C)(C)CCCc1cc3c(cc(OCc4csc(C(C)C)n4)nc3cc1OC)O2)C(=O)NS(=O)(=O)C1CC1 : 7.59

Prompt: Looking for the measured pIC50 of "C=C[C@@H]1C[C@]1(NC(=O)[C@@H]1C[C@@H]2CN1C(=O)[C@H](C1CCCCC1)NC(=O)OCC(C)(C)CCCc1cc3c(cc(OC4CCCC4)nc3cc1OC)O2)C(=O)NS(=O)(=O)C1CC1" , can you help?
Response: 7.47

Prompt: Would you mind telling me what pIC50 value was observed for "C=C[C@@H]1C[C@]1(NC(=O)[C@@H]1C[C@@H]2CN1C(=O)[C@H](C1CCCCC1)NC(=O)OCC(C)(C)CCCc1cc3c(cc(N(C)C(=O)OCC)nc3cc1OC)O2)C(=O)NS(=O)(=O)C1CC1" ?
Response: 7.57

Prompt: Give its pIC50 value. Item: "C=C[C@@H]1C[C@]1(NC(=O)[C@@H]1C[C@@H]2CN1C(=O)[C@H](C1CCCCC1)NC(=O)OCC(C)(C)CCCc1cc3c(cc(-c4ccc(F)cc4)nc3cc1OC)O2)C(=O)NS(=O)(=O)C1CC1"
Response: 6.96

Prompt: Which pIC50 value is on record for "C=C[C@@H]1C[C@]1(NC(=O)[C@@H]1C[C@@H]2CN1C(=O)[C@H](C1CCCCC1)NC(=O)OCC(C)(C)CCCc1cc3c(cc(N4CCCCC4)nc3cc1OC)O2)C(=O)NS(=O)(=O)C1CC1" ?
Response: 7.59

###

Experiment: Drug level in Sprague-Dawley rat liver at 5 mg/kg, po after 4 hrs
Format: ADME, organism-based
Design: dose 5 mg/kg, route oral
Settings: read-out: Drug uptake
# key: entry, value: concentration at 4 h
Number only, in nM; omit the unit.

These recorded examples may help you get a feel for the data.
C=C[C@@H]1C[C@]1(NC(=O)[C@@H]1C[C@@H]2CN1C(=O)[C@H](C1CCCCC1)NC(=O)OCC(C)(C)CCCc1cc3c(cc(-c4ccc(OC)cc4)nc3cc1OC)O2)C(=O)NS(=O)(=O)C1CC1 : 6100
C=C[C@@H]1C[C@]1(NC(=O)[C@@H]1C[C@@H]2CN1C(=O)[C@H](C1CCCC1)NC(=O)OCC(C)(C)CCCc1cc3c(cc(OCc4csc(C)n4)nc3cc1OC)O2)C(=O)NS(=O)(=O)C1CC1 : 800
C=C[C@@H]1C[C@]1(NC(=O)[C@@H]1C[C@@H]2CN1C(=O)[C@H](C1CCCCC1)NC(=O)OCC(C)(C)CCCc1cc3c(cc(O)nc3cc1OC)O2)C(=O)NS(=O)(=O)C1CC1 : 70
C=C[C@@H]1C[C@]1(NC(=O)[C@@H]1C[C@@H]2CN1C(=O)[C@H](C1CCCC1)NC(=O)OCC(C)(C)CCCc1cc3c(cc(OCC)nc3cc1OC)O2)C(=O)NS(=O)(=O)C1CC1 : 35000
C=C[C@@H]1C[C@]1(NC(=O)[C@@H]1C[C@@H]2CN1C(=O)[C@H](C1CCCCC1)NC(=O)OCC(C)(C)CCCc1cc3c(cc(OCc4csc(C)n4)nc3cc1OC)O2)C(=O)NS(=O)(=O)C1CC1 : 19000
C=C[C@@H]1C[C@]1(NC(=O)[C@@H]1C[C@@H]2CN1C(=O)[C@H](C1CCCCC1)NC(=O)OCC(C)(C)CCCc1cc3c(cc(-c4cccnc4)nc3cc1OC)O2)C(=O)NS(=O)(=O)C1CC1 : 200

# evaluate next
Prompt: // query concentration at 4 h value for entry "C=C[C@@H]1C[C@]1(NC(=O)[C@@H]1C[C@@H]2CN1C(=O)[C@H](C1CCCCC1)NC(=O)OCC(C)(C)CCCc1ccc3c(c1)c(cc1nccn13)O2)C(=O)NS(=O)(=O)C1CC1"
Response: 700

###

Test system: Hepatitis C virus
Assay: Antiviral activity against HCV1b con1 infected in human Huh-7 cells assessed as inhibition of viral replication after 24 hrs in presence of 50% normal human serum
Assay type: functional, organism-based, Hepacivirus hominis
Details: Con1, Huh-7, 24 h
Measured property: IC50 (nM)
Form entry: value (nM) — number only.

Some solved entries appear below for comparison.
C=C[C@@H]1C[C@]1(NC(=O)[C@@H]1C[C@@H]2CN1C(=O)[C@H](C1CCCC1)NC(=O)OCC(C)(C)CCCc1cc3c(cc(OCc4ncco4)nc3cc1OC)O2)C(=O)NS(=O)(=O)C1CC1 : 16
C=C[C@@H]1C[C@]1(NC(=O)[C@@H]1C[C@@H]2CN1C(=O)[C@H](C1CCCC1)NC(=O)OCC(C)(C)CCCc1cc3c(nc4cc(F)ccc4c3cc1OC)O2)C(=O)NS(=O)(=O)C1CC1 : 43

Prompt: Bench note: what IC50 did "C=C[C@@H]1C[C@]1(NC(=O)[C@@H]1C[C@@H]2CN1C(=O)[C@H](C1CCCC1)NC(=O)OCC(C)(C)CCCc1cc3c(nc4ccccc4c3cc1OC)O2)C(=O)NS(=O)(=O)C1CC1" show?
Response: 29
